- System: foxtail, giant (giant foxtail, Setaria faberii)
- method_summary: Test A greenhouse herbicide test, pre- and postemergence
- Type: in vivo
- condition_parameters: Preemergence, 125 g ai/ha; 0 to 100 scale where 0 is no effect and 100 is complete control
Listing of recorded Foxtail, Giant plant response rating by entry.
Respond using a number only.

Would you please look over these solved cases?
# entry_smiles, Foxtail, Giant plant response rating
records = [
    ("CCC(=O)Oc1c(C)nn(C)c(=O)c1-c1c(C(F)(F)F)ccc2ccccc12", 10),
    ("Cc1ccc2ccccc2c1-c1c(O)cnn(C)c1=O", 30),
    ("CC(=O)Oc1c(C)nn(C)c(=O)c1-c1c(C)sc2c(C)cc(C)cc12", 90),
    ("Cc1ccc2ccccc2c1-c1c(O)c(Cl)nn(C)c1=O", 90),
]

Next, consider the following compound.
Input COc1nn(C)c(=O)c(-c2c(C)sc3ccccc23)c1O , output reported Foxtail, Giant plant response rating.
50
